system: 993429-296-R-J1-PDC complex spheroid growth, percent test/control; test: Anticancer human tumor 993429-296-R-J1-PDC patient-derived uterine sarcoma cell line growth inhibition [Asc]; settings: second compound 0.316 µM; first compound 0.00949 µM; active compounds read low;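 note: spheroids exposed to compounds for seven days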
readout_name: viability, T/C (%)
// note: answer is a bare numeric in %

Guide cases for viability, T/C, answers given:
INSERT INTO measurements (compound, assay_system, readout_name, val) VALUES
  ('NC(=O)C(=Cn1cnc(-c2cc(C(F)(F)F)cc(C(F)(F)F)c2)n1)c1cncnc1 + CNC(C)C(=O)NC1CN(S(=O)(=O)c2cccc(S(=O)(=O)N3CCC4CCC(C(=O)NC(c5ccccc5)c5ccccc5)N4C(=O)C(NC(=O)C(C)NC)C3)c2)CCC2CCC(C(=O)NC(c3ccccc3)c3ccccc3)N2C1=O', '993429-296-R-J1-PDC complex spheroid growth, percent test/control', 'viability, T/C', 43.7),
  ('Cc1nc(N2CCC3(CC2)COC(C)C3N)c(CO)nc1Sc1ccnc(N)c1Cl (stereo not drawn) + CNC(C)C(=O)NC1CN(S(=O)(=O)c2cccc(S(=O)(=O)N3CCC4CCC(C(=O)NC(c5ccccc5)c5ccccc5)N4C(=O)C(NC(=O)C(C)NC)C3)c2)CCC2CCC(C(=O)NC(c3ccccc3)c3ccccc3)N2C1=O', '993429-296-R-J1-PDC complex spheroid growth, percent test/control', 'viability, T/C', 43.6);

Form field: reported viability, T/C of CCN1C(C(=O)NC23CCC(C(=O)O)(CC2)CC3)C(c2cccc(Cl)c2F)C2(C(=O)Nc3cc(Cl)ccc32)C12CCCCC2 (stereo not drawn) + Cc1c(S(C)(=O)=O)c(-c2cc(F)cc(N3CCN(c4ccc(NS(=O)(=O)c5ccc(NC(CCN6CCC(C(=O)OCCCP(=O)(O)O)CC6)CSc6ccccc6)c(S(=O)(=O)C(F)(F)F)c5)cc4)CC3)c2)c(-c2ccc(Cl)cc2)n1C(C)C
63.1
